Measured kon values are reported for all entries that follow.
Biological target: SARS-CoV-2 spike receptor-binding domain, ancestral (amino acids 331-529), biotinylated (SARS-CoV-2, ancestral (Wuhan), UniProt P0DTC2, biotin (RBD expression vector co-expressed with BirA-Flag, 100 μM biotin added))
Assay: BLI
Conditions: both partners purified
Lab book: enter the figure in M⁻¹ s⁻¹, no units written.

Completed entries (count: 3):
NIV-11 Fab (Fab, V domains shown) VH: QLVQSGPEVKKPGTSVKVSCKASGFTFYYSAVQWVRQARGQRLEWLGWMAVGSGKANYAQKFQERLTLTRDMSTSTAYMELSSLRSEDTAVYYCAAPNCTGGSCYDGFNLWGQGTVVTVSS VL: EIVLTQSPGTLSLSPGDRAILSCRASQTVNSNYLAWYQQKPGQAPRLLIYGTSSRATGIPDRFSGSGSGTDFTLTISRLEPEDFAVYYCQQYGSSPWLFGQGTKVEIK; 53600
NIV-13 Fab (Fab, V domains shown) VH: EVQLLESGGGLVQPGGSLRLSCAASGFTFSRYALSWVRQAPGKGLEWVSAISGAAITTYYADSVKGRFTISRDDSRNTLFMQMDSLRAEDTAVYYCAKGDYYDSSGYLAEYFPHWGQGTLVTVSS VL: SYELTQPPSVSVSPGQTARITCFADALPKQHAYWYQQKAGQAPVLVIFKDTERPSGIPKRFSGSRSGATVTLTISGVQAEDEADYYCQSTDISGVLFGGGTKLTVL; 163000
NIV-8 Fab (Fab, V domains shown) VH: EVQLVESGGGVVQPGRSLRLSCAASGFKFSKFAMHWVRQAPGKGPEWVAVISYDGNQYHSADSVKGRFTISRDNSFNTLYLQMNSLGPEDTAVYYCARDGPDTSGYYANIYFDFWGQGTLVTVSS VL: QSVLTQPPSVSGAPGQRVTISCTGSSSNIGAGYDVHWYQQLPGRAPKLLIFDNNNRPSGVPDRFSGSKSGTSASLAITGLQTEDEAYYYCQSYDNSLILAVFGGGTKVTVL; 106000

// switching to the query binder
Notebook: NIV-10 Fab (Fab, V domains shown) VH: EVQLVESGGGLVQPGGSLRLSCAASGFTFYSYWMTWVRQAPGKGLEWVANIKHDESESHYVDSVRGRFTISRDNAKNSVYLQMKGLRAEDTAVYYCARDGGYNILTAYYHAPSYWGQGTLVTVSS VL: QSALTQPASVSGSPGQSITISCTGTSSDVGGYNFVSWYRQYPGKAPQLMIYDVSRRPSGDSDRFSGSKSGNTASLTISGLQAEDEAEYHCSSYTGRSPYVVFGGGTKVTVL , kon read as 223000
